tested on: HEK-293 cells; assay: Selenite-induced apoptosis, annexin V-FITC/PI staining and FACS, HEK-293 cells; assay type: cell-based; conditions: Homo sapiens, HEK293, compound 2 h then selenite 15 μM 4 h, means±SD (n=3)
Reported pIC50 values follow for various molecules
Quick note: pIC50 means taking -log10 of the concentration in moles per liter.

Solved cases (2 shown):
- molecule: "O=C1CC(N2CCC(Nc3ccc(OC(F)(F)F)cc3)CC2)C(=O)N1c1ccc(Cl)cc1 (stereo not drawn) [Formula 10]"
  value observed: 5.47
- molecule: "O=C(CC(CO)N1CCN(c2ccc(OC(F)(F)F)cc2)CC1)Nc1ccc(Cl)cc1 (racemic) [Formula 1]"
  value observed: 5.54

Briefly, pIC50 measured for O=C1CC(N2CCN(c3ccc(OC(F)(F)F)cc3)CC2)C(=O)N1c1ccc(Cl)cc1 (stereo not drawn) [Formula 2] : 5.12

---

target: purified rat VDAC1 (Rattus norvegicus, UniProt Q9Z2L0); construct: from tissue; host or cells: rat liver mitochondria; assay: VDAC1 channel conductance in planar lipid bilayer; format: biochemical; conditions: planar lipid bilayer, measured at +10 mV and −10 mV
Sequence (Q9Z2L0 whole entry): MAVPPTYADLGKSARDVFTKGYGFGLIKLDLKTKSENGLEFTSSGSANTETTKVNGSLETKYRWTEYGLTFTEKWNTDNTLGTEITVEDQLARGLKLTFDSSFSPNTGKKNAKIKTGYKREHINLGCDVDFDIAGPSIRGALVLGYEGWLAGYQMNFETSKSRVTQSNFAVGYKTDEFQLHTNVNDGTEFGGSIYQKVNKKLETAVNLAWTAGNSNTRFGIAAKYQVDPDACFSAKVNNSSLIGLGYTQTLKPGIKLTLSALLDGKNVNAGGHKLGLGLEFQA
Each item that follows carries a reported IC50.
Note: unit µM is implicit; provide only the numeric part.

- compound: "O=C(O)CNC(=O)C1(Nc2ccccc2)CCN(Cc2cccc3ccccc23)CC1"
  IC50 / µM: 5

# input for lookup
GET /value?item= O=C(CC(CO)N1CCN(c2ccc(OC(F)(F)F)cc2)CC1)Nc1ccc(Cl)cc1 (racemic) &field=IC50 returns 15

---

test: Brain penetration after oral gavage, HPLC/MS of brain extracts; type: in vivo, C57BL/6 mice; settings: C57BL/6, mouse, brain, oral, 50 mg/kg, 50 mg/kg in PLGA nanoparticles, oral gavage, 12 h, mouse; read-out: Compounds in brain extract
assay endpoint: concentration at 12 h (µM)
The reply should be a number in µM, with the unit left off.

Documented concentration at 12 h of O=C1CC(N2CCC(Nc3ccc(OC(F)(F)F)cc3)CC2)C(=O)N1c1ccc(Cl)cc1 (stereo not shown) : 4.36

---

target: VDAC1 (Homo sapiens); assay: Selenite-induced VDAC1 oligomerization by EGS cross-linking and immunoblot in HEK-293 cells (Method B); format: cell-based; design: endogenous in cells; host or cells: HEK-293
Sequence (P21796 whole entry): as the sequence (Q9Z2L0 whole entry) above, with N55T, V129M, S160A, V227I counted along it
assay endpoint: pIC50
Please treat pIC50 as minus the base-10 logarithm of the molar concentration.

Data point: O=C1CC(N2CCC(Nc3ccc(OC(F)(F)F)cc3)CC2)C(=O)N1c1ccc(Cl)cc1 (stereo not shown) ; pIC50 = 5.48

---

Catalogue of molecules with associated IC50
system: Cyto c release from mitochondria; experiment: Selenite-induced Cytochrome c release from mitochondria in HEK-293 cells; format: cell-based; details: Homo sapiens, HEK293, compound 2 h then selenite 15 μM 4 h, means±SD (n=3)

Consider the reported IC50 for these molecules:
- molecule: "O=C1CC(N2CCC(Nc3ccc(OC(F)(F)F)cc3)CC2)C(=O)N1c1ccc(Cl)cc1 (stereo not drawn)"
  value observed: "3.6 µM"
- molecule: "O=C1CC(N2CCN(c3ccc(OC(F)(F)F)cc3)CC2)C(=O)N1c1ccc(Cl)cc1 (stereo not drawn)"
  value observed: "6.6 µM"

With those in mind, consider the next molecule.
Form: molecule = O=C(CC(CO)N1CCN(c2ccc(OC(F)(F)F)cc2)CC1)Nc1ccc(Cl)cc1 (racemic) ; IC50 = 1.8 µM

---

target: rVDAC1-GFP2 / rVDAC1-Rluc in T-REx-293 cells (Rattus norvegicus); construct: The rVDAC1 gene was cloned into BamHI and HindIII sites of the BRET2 plasmids (N2 variants); expressed in transfected cells; host or cells: T-REx-293 cells stably expressing hVDAC1-shRNA (T-REx-pS10); experiment: BRET2 assay of VDAC1 oligomerization induced by apoptosis inducers (Method A); type: cell-based; conditions: test compound 10 μM, 1 h pre-incubation, As2O3 60 μM (3 h)
Sequence (Q9Z2L0 with tags, fused parts or gaps limits assumed): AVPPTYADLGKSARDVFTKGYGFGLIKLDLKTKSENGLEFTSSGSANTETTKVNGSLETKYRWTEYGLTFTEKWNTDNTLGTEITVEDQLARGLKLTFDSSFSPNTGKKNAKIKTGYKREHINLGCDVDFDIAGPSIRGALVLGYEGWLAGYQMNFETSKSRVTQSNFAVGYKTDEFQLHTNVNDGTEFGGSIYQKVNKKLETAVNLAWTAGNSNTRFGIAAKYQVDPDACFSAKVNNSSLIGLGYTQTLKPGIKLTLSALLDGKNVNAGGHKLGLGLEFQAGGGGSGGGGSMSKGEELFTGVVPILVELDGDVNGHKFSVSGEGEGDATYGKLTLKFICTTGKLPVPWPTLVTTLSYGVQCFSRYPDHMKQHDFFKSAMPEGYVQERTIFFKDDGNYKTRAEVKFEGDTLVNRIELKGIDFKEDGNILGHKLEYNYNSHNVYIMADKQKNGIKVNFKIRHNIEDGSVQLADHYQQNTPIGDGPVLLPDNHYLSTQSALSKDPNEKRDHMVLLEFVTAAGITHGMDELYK
Returns one of YES or NO; YES when BRET2, % of inhibition, As2O3 is >= 80%.

These recorded examples may help you get a feel for the data.
- molecule: "Nc1cc2c3c(cccc3c1)C(=O)N(CCN1CCCC1)C2=O"
  group label: "YES"
- molecule: "c1ccc2c(c1)[nH]c1c3ccccc3sc21"
  group label: "NO"
- molecule: "CCOC(=O)Nc1ccc(C(=O)/C=C/c2ccccc2)cc1"
  group label: "NO"
- molecule: "O=C(Nc1ccccc1-c1ccccc1)C(=O)Nc1ccccc1-c1ccccc1"
  group label: "NO"
- molecule: "Oc1ccc(Cc2ccc(Cl)cc2)c(O)c1"
  group label: "YES"

**Q:** Check this molecule for BRET2, % of inhibition, As2O3 at or above 80%: COc1ccc(/C=C2/CCOC2=O)cc1
**A:** YES

**Q:** Please tell me: is the molecule S=c1nc[nH]c2c1ncn2C1CCCC1 at or over 80% in terms of BRET2, % of inhibition, As2O3?
**A:** YES

**Q:** Check if BRET2, % of inhibition, As2O3 >= 80% (inclusive). Item: CCCOc1nc2c(c(=O)n(C)c(=O)n2C)n1C
**A:** NO

**Q:** Does BRET2, % of inhibition, As2O3 meet or surpass 80% for O=C(O)c1cc2ccccc2c2cc(Br)ccc12 ?
**A:** YES

**Q:** Reported BRET2, % of inhibition, As2O3 reaches at least 80% for CCN(CC)Cc1cc2[nH]c3c4ccc(Cl)cc4ncc3c2cc1OC ?
**A:** NO

**Q:** Is the recorded value of BRET2, % of inhibition, As2O3 equal to or greater than 80% for this molecule? O=C(O)c1ccccc1C(=O)Nc1ccccc1[N+](=O)[O-]
**A:** NO

**Q:** Could you tell me if the measured BRET2, % of inhibition, As2O3 of Nc1ccc(NC(=O)Nc2ccc(N)cc2)cc1 reaches 80% or more?
**A:** YES

**Q:** Can O=C(O)c1cc2ccccc2cc1Nc1ccccc1 be said to have BRET2, % of inhibition, As2O3 at or above 80%?
**A:** NO

**Q:** Identify whether the reported BRET2, % of inhibition, As2O3 of the following molecule is 80% or greater: O=C(/C=C/c1ccccc1Cl)c1ccc(O)cc1
**A:** NO

**Q:** Answer whether BRET2, % of inhibition, As2O3 of COc1ccc(C2OC3=C(Nc4cc(C)c(C)cc4N3)C2=O)cc1 (stereo not drawn) is greater than or equal to 80%.
**A:** NO

**Q:** Determine whether measured BRET2, % of inhibition, As2O3 meets or exceeds 80% for CN1CCN(C(=O)Nc2ccc([N+](=O)[O-])cc2)CC1
**A:** NO

**Q:** Exam item: decide whether the reported BRET2, % of inhibition, As2O3 for COc1c(NC(C)=O)c2ccccc2c2ccccc12 is at least 80%.
**A:** NO

**Q:** Kindly determine if BRET2, % of inhibition, As2O3 recorded for O=[N+]([O-])c1cccc(/C=C/c2ccccn2)c1 is above or exactly 80%.
**A:** NO

---

Target: rVDAC1-GFP2 / rVDAC1-Rluc in T-REx-293 cells (Rattus norvegicus)
Construct: The rVDAC1 gene was cloned into BamHI and HindIII sites of the BRET2 plasmids (N2 variants); expressed in transfected cells; host or cells: T-REx-293 cells stably expressing hVDAC1-shRNA (T-REx-pS10)
Assay: BRET2 assay of VDAC1 oligomerization induced by apoptosis inducers (Method A)
Format: cell-based
Conditions: test compound 10 μM, 1 h pre-incubation, STS 1 μM (3 h)
Protocol: BRET2 screening may be carried out as described in the art ([…] et al., (2010) Oligomerization of the mitochondrial protein voltage-dependent anion channel is coupled to the induction of apoptosis. Mol Cell Biol 30, 5698-5709). […] The BRET2 signal represents the ratio of the GFP2 fluorescence, measured at its emission wavelength (510 nm), over the light intensity (luminescence) emitted at 395 nm. All measurements were performed using the Infinite 200 ELISA reader (Tecan). […]
assay endpoint: BRET2, % of inhibition, STS (%)
Your answer should be a plain number; it is taken to be in %.

In the examples that follow, each entry is paired with its recorded BRET2, % of inhibition, STS.
- molecule: "Nc1nc(Nc2ccccc2)n[nH]1"
  BRET2, % of inhibition, STS (%): 0
- molecule: "O=C(c1cccnc1)c1cc(-c2ccccn2)c(=O)n2ccccc12"
  BRET2, % of inhibition, STS (%): 0
- molecule: "CCOC(=O)N1CCN(Cc2c(O)ccc3ccccc23)CC1"
  BRET2, % of inhibition, STS (%): 0
- molecule: "COc1ccc(/C=C2/CCOC2=O)cc1"
  BRET2, % of inhibition, STS (%): 38.2
- molecule: "O=C(Nc1ccc(C2=NCCN2)cc1)c1ccc(Cl)c(C(=O)Nc2ccc(C3=NCCN3)cc2)c1"
  BRET2, % of inhibition, STS (%): 14.8

BRET2, % of inhibition, STS reported for this molecule CCCOc1nc2c(c(=O)n(C)c(=O)n2C)n1C : 0

Given item CC#CC#Cc1cccc(=O)o1 , the value recorded as its BRET2, % of inhibition, STS is 0
